Kindly supply the reported molar heat capacity at constant pressure values for the records listed here.
- procedure details: molar heat capacity at constant pressure
- condition parameters: 298.15 K; 8000 kPa; Liquid; Small sample (50 mg) DSC
One number for each entry, in J/K/mol.

Here is how some molecules turned out for molar heat capacity at constant pressure.
molecule	molar heat capacity at constant pressure (J/K/mol)
CCCCCCCC[n+]1ccn(C)c1.F[B-](F)(F)F [1-methyl-3-octylimidazolium tetrafluoroborate]	500.24
CCCCn1cc[n+](C)c1.F[B-](F)(F)F [1-butyl-3-methylimidazolium tetrafluoroborate]	366.26
CCCCCCn1cc[n+](C)c1.F[B-](F)(F)F [1-hexyl-3-methylimidazolium tetrafluoroborate]	429.95

# next molecule below
Problem: Any idea what molar heat capacity at constant pressure was measured for CCn1cc[n+](C)c1.F[B-](F)(F)F [1-ethyl-3-methylimidazolium tetrafluoroborate] ?
Solution: 304.99

###

- procedure details: molar heat capacity at constant pressure
- condition parameters: 313.15 K; 50000 kPa; Liquid; Small sample (50 mg) DSC
recorded metric: molar heat capacity at constant pressure (J/K/mol)
Numbers only, in J/K/mol.

compound	molar heat capacity at constant pressure (J/K/mol)
CCCCCCCC[n+]1ccn(C)c1.F[B-](F)(F)F [1-methyl-3-octylimidazolium tetrafluoroborate]	509.31
CCn1cc[n+](C)c1.F[B-](F)(F)F [1-ethyl-3-methylimidazolium tetrafluoroborate]	311.02
CCCCCCn1cc[n+](C)c1.F[B-](F)(F)F [1-hexyl-3-methylimidazolium tetrafluoroborate]	438.61

# next compound below
Problem: Any idea what molar heat capacity at constant pressure was measured for CCCCn1cc[n+](C)c1.F[B-](F)(F)F [1-butyl-3-methylimidazolium tetrafluoroborate] ?
Solution: 373.12

###

- procedure details: molar heat capacity at constant pressure
- condition parameters: 293.15 K; 6000 kPa; Liquid; Small sample (50 mg) DSC
Kindly supply the reported molar heat capacity at constant pressure values for the records listed here.
One number for each entry, in J/K/mol.

Here is how some compounds turned out for molar heat capacity at constant pressure.
compound	scale unit	molar heat capacity at constant pressure
CCCCCCn1cc[n+](C)c1.F[B-](F)(F)F [1-hexyl-3-methylimidazolium tetrafluoroborate]	J/K/mol	427.46
CCCCn1cc[n+](C)c1.F[B-](F)(F)F [1-butyl-3-methylimidazolium tetrafluoroborate]	J/K/mol	364.21
CCCCCCCC[n+]1ccn(C)c1.F[B-](F)(F)F [1-methyl-3-octylimidazolium tetrafluoroborate]	J/K/mol	496.78

# next compound below
Problem: Any idea what molar heat capacity at constant pressure was measured for CCn1cc[n+](C)c1.F[B-](F)(F)F [1-ethyl-3-methylimidazolium tetrafluoroborate] ?
Solution: 303.32

###

- procedure details: molar heat capacity at constant pressure
- condition parameters: 308.15 K; 20000 kPa; Liquid; Small sample (50 mg) DSC
recorded metric: molar heat capacity at constant pressure (J/K/mol)
Give bare numbers, in J/K/mol.

molecule	value measured
CCCCCCn1cc[n+](C)c1.F[B-](F)(F)F [1-hexyl-3-methylimidazolium tetrafluoroborate]	435.37
CCCCCCCC[n+]1ccn(C)c1.F[B-](F)(F)F [1-methyl-3-octylimidazolium tetrafluoroborate]	506.51
CCCCn1cc[n+](C)c1.F[B-](F)(F)F [1-butyl-3-methylimidazolium tetrafluoroborate]	370.61

Problem: Any idea what molar heat capacity at constant pressure was measured for CCn1cc[n+](C)c1.F[B-](F)(F)F [1-ethyl-3-methylimidazolium tetrafluoroborate] ?
Solution: 308.68

###

- procedure details: molar heat capacity at constant pressure
- condition parameters: 283.15 K; 8000 kPa; Liquid; Small sample (50 mg) DSC
recorded metric: molar heat capacity at constant pressure (J/K/mol)
Give bare numbers, in J/K/mol.

compound	molar heat capacity at constant pressure [J/K/mol]
CCn1cc[n+](C)c1.F[B-](F)(F)F [1-ethyl-3-methylimidazolium tetrafluoroborate]	300.3
CCCCCCn1cc[n+](C)c1.F[B-](F)(F)F [1-hexyl-3-methylimidazolium tetrafluoroborate]	422.94
CCCCn1cc[n+](C)c1.F[B-](F)(F)F [1-butyl-3-methylimidazolium tetrafluoroborate]	360.37

# next compound below
Problem: Any idea what molar heat capacity at constant pressure was measured for CCCCCCCC[n+]1ccn(C)c1.F[B-](F)(F)F [1-methyl-3-octylimidazolium tetrafluoroborate] ?
Solution: 489.24

###

- procedure details: molar heat capacity at constant pressure
- condition parameters: 298.15 K; 10000 kPa; Liquid; Small sample (50 mg) DSC
recorded metric: molar heat capacity at constant pressure (J/K/mol)
Give bare numbers, in J/K/mol.

molecule	molar heat capacity at constant pressure, J/K/mol
CCn1cc[n+](C)c1.F[B-](F)(F)F [1-ethyl-3-methylimidazolium tetrafluoroborate]	305.02
CCCCCCCC[n+]1ccn(C)c1.F[B-](F)(F)F [1-methyl-3-octylimidazolium tetrafluoroborate]	500.24
CCCCCCn1cc[n+](C)c1.F[B-](F)(F)F [1-hexyl-3-methylimidazolium tetrafluoroborate]	429.99

# next molecule below
Problem: Any idea what molar heat capacity at constant pressure was measured for CCCCn1cc[n+](C)c1.F[B-](F)(F)F [1-butyl-3-methylimidazolium tetrafluoroborate] ?
Solution: 366.28

###

Kindly supply the reported molar heat capacity at constant pressure values for the records listed here.
- procedure details: molar heat capacity at constant pressure
- condition parameters: 293.15 K; 20000 kPa; Liquid; Small sample (50 mg) DSC
Give bare numbers, in J/K/mol.

molecule	value measured
CCCCn1cc[n+](C)c1.F[B-](F)(F)F [1-butyl-3-methylimidazolium tetrafluoroborate]	364.35

Hello, I would appreciate it if you could give molar heat capacity at constant pressure for each entry below.
1. CCn1cc[n+](C)c1.F[B-](F)(F)F [1-ethyl-3-methylimidazolium tetrafluoroborate]
2. CCCCCCCC[n+]1ccn(C)c1.F[B-](F)(F)F [1-methyl-3-octylimidazolium tetrafluoroborate]
3. CCCCCCn1cc[n+](C)c1.F[B-](F)(F)F [1-hexyl-3-methylimidazolium tetrafluoroborate]

Solution:
303.53
496.76
427.75

###

- procedure details: molar heat capacity at constant pressure
- condition parameters: 313.15 K; 30000 kPa; Liquid; Small sample (50 mg) DSC
recorded metric: molar heat capacity at constant pressure (J/K/mol)
Give bare numbers, in J/K/mol.

Here is how some molecules turned out for molar heat capacity at constant pressure.
molecule	value measured
CCn1cc[n+](C)c1.F[B-](F)(F)F [1-ethyl-3-methylimidazolium tetrafluoroborate]	310.7
CCCCCCCC[n+]1ccn(C)c1.F[B-](F)(F)F [1-methyl-3-octylimidazolium tetrafluoroborate]	509.34
CCCCn1cc[n+](C)c1.F[B-](F)(F)F [1-butyl-3-methylimidazolium tetrafluoroborate]	372.94

# next molecule below
Problem: Any idea what molar heat capacity at constant pressure was measured for CCCCCCn1cc[n+](C)c1.F[B-](F)(F)F [1-hexyl-3-methylimidazolium tetrafluoroborate] ?
Solution: 438.29

###

- procedure details: molar heat capacity at constant pressure
- condition parameters: 323.15 K; 40000 kPa; Liquid; Small sample (50 mg) DSC
Numbers after ± are expanded uncertainties.
recorded metric: molar heat capacity at constant pressure

molecule	recorded metric	value measured
CCCCCCn1cc[n+](C)c1.F[B-](F)(F)F [1-hexyl-3-methylimidazolium tetrafluoroborate]	molar heat capacity at constant pressure	444.22 ± 6.9 J/K/mol
CCCCn1cc[n+](C)c1.F[B-](F)(F)F [1-butyl-3-methylimidazolium tetrafluoroborate]	molar heat capacity at constant pressure	377.8 ± 5.8 J/K/mol
CCCCCCCC[n+]1ccn(C)c1.F[B-](F)(F)F [1-methyl-3-octylimidazolium tetrafluoroborate]	molar heat capacity at constant pressure	514.44 ± 8 J/K/mol

# next molecule below
Problem: Any idea what molar heat capacity at constant pressure was measured for CCn1cc[n+](C)c1.F[B-](F)(F)F [1-ethyl-3-methylimidazolium tetrafluoroborate] ?
Solution: 314.78 ± 4.9 J/K/mol

###

- procedure details: molar heat capacity at constant pressure
- condition parameters: 283.15 K; 50000 kPa; Liquid; Small sample (50 mg) DSC
Kindly supply the reported molar heat capacity at constant pressure values for the records listed here.
One number for each entry, in J/K/mol.

compound	value measured
CCCCn1cc[n+](C)c1.F[B-](F)(F)F [1-butyl-3-methylimidazolium tetrafluoroborate]	360.96

Hello, I would appreciate it if you could give molar heat capacity at constant pressure for each entry below.
1. CCCCCCCC[n+]1ccn(C)c1.F[B-](F)(F)F [1-methyl-3-octylimidazolium tetrafluoroborate]
2. CCCCCCn1cc[n+](C)c1.F[B-](F)(F)F [1-hexyl-3-methylimidazolium tetrafluoroborate]
3. CCn1cc[n+](C)c1.F[B-](F)(F)F [1-ethyl-3-methylimidazolium tetrafluoroborate]

Solution:
1: 489.26; 2: 423.85; 3: 300.87

###

- procedure details: molar heat capacity at constant pressure
- condition parameters: 298.15 K; 30000 kPa; Liquid; Small sample (50 mg) DSC
recorded metric: molar heat capacity at constant pressure (J/K/mol)
Give bare numbers, in J/K/mol.

Here is how some molecules turned out for molar heat capacity at constant pressure.
molecule	scale unit	molar heat capacity at constant pressure
CCCCn1cc[n+](C)c1.F[B-](F)(F)F [1-butyl-3-methylimidazolium tetrafluoroborate]	J/K/mol	366.45
CCCCCCn1cc[n+](C)c1.F[B-](F)(F)F [1-hexyl-3-methylimidazolium tetrafluoroborate]	J/K/mol	430.38

Hello, I would appreciate it if you could give molar heat capacity at constant pressure for each entry below.
1. CCn1cc[n+](C)c1.F[B-](F)(F)F [1-ethyl-3-methylimidazolium tetrafluoroborate]
2. CCCCCCCC[n+]1ccn(C)c1.F[B-](F)(F)F [1-methyl-3-octylimidazolium tetrafluoroborate]

Solution:
[305.33, 500.2]

Where do the numbers come from? From the NIST ThermoML archive (doi:10.1021/je9004992).
